Protocol: Solubility of the compound in distilled water after 15 mins by HPLC method
Type: physicochemical
Recorded measurements of solubility at 0.25 h, one per entry

// solubility at 0.25 h value for CC(C)(C)c1[nH]cnc1/C=c1\[nH]c(=O)/c(=C/c2ccccc2)nc1OCOC(=O)CCCc1cn([C@@H](CCC(=O)[O-])C(=O)[O-])nn1.[Na+].[Na+] : > 100 mg/mL

GET /value?item= CC(C)(C)c1[nH]cnc1/C=c1\[nH]c(=O)/c(=C/c2ccccc2)nc1OCOC(=O)CCCc1cn([C@@H](CC(=O)[O-])C(=O)[O-])nn1.[Na+].[Na+] &field=solubility at 0.25 h returns > 100 mg/mL

The reported solubility at 0.25 h of the compound CC(C)(C)c1[nH]cnc1/C=c1\[nH]c(=O)/c(=C/c2ccccc2)nc1OCOC(=O)CCCc1cn([C@H](CCC(=O)[O-])C(=O)[O-])nn1.[Na+].[Na+] was > 100 mg/mL
